# target.or.test.system: T1, CH505.TF mutant gp120 M6 (HIV-1)
# T1 construct: domain: gp120
# method.description: ELISA
Can you tell me LogAUC for the items I'm about to list?
One number for each entry.

// solved cases for LogAUC follow
binder	LogAUC
CH556 (antibody, V domains shown, also called CH235.11) VH: QVQLVQSGGTVKSPGTSVTLSCKTSGYNFIDYYIHWVRRAPGQRPELMGYIDPSHGRPDYEGKFRDRISLYRDTSTSVVYMDVRGLRLDDTALYYCVRGGGVEVSSNHYDHWGPGTMVFVSP VL: ETTLTQSPDTLSASPGERVTLSCRAAQSVGSQVAWFRHIRGQPPRLLISGASTRAAGVPARFSGSGSGTDFTLTISGMQSEDFAEYFCQQYHMWWTFGQGTRVDKN	0.09
CH241 (antibody, V domains shown) VH: QVQLVQSGAAVKKPGASVRVSCKASGYTFTSSHIHWVRQAPGQGPEWMGMIDPSVGRPTTAGKFQGRVTMTRDRYTSTAYMDLSSLRSEDTAVYYCARSVETTGSLLYFDYWGQGTLITVSS VL: EIVLTQSPATLSVSPGERATLSCRASQSVRSNIAWYQQKPGQAPRLLIHGASTRATGIPGRFSGSGSGPEFTLAISSVQSEDFAVYYCQQYNDWWTFGQGTKVEIK	13.2
CH491 (antibody, V domains shown, also called CH235.7; DH491) VH: QVQLVQSGAAVKRPGASVTISCRASGYTFTTYYIHWVRQAPGQGLELMGWINPRGGRTDYSYRFEDRVSMYRDTSMSIVYMDLRNLKSADTAVYYCVRNVGTSGSLLHYDFWGQGSLVTVSS VL: EIVLTQSPATLSVSPGERVTLSCRASQSVRNNLAWYRQKRGQAPRLLIYGASTRATGIPARFSGSGSGTEFTLTISSMQSEDFAVYYCQQYNNWWTFGQGTKVEIK	9.21
CH236 (antibody, V domains shown, also called CH236_4A/293i) VH: QVQLVQSGAAVKRPGASVTISCRASGYTFTTYYIHWVRQAPGQRLELMGMIDPSRGRTDYAQKFQGRVTMSRDTSTSTLYMELRSLRPDDTALYYCVRNVGTEGSLLHYDYWGQGTLVTVSS VL: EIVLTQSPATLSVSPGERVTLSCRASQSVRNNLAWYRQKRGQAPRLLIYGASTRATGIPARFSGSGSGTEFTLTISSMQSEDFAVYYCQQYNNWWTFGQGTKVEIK	6.31
CH557 (antibody, V domains shown, also called CH235.12; CH557_4A/293i) VH: QVRLAQYGGGVKRLGATMTLSCVASGYTFNDYYIHWVRQAPGQGFELLGYIDPANGRPDYAGALRERLSFYRDKSMETLYMDLRSLRYDDTAMYYCVRNVGTAGSLLHYDHWGSGSPVIVSS VL: EIVLTQSPATLSASPGERVTLTCRASRSVRNNVAWYQHKGGQSPRLLIYDASTRAAGVPARFSGSASGTEFTLAISNLESEDFTVYFCLQYNNWWTFGQGTRVDIK	8.21

// next entry
[in] May I ask what LogAUC has been recorded for CH493 (antibody, V domains shown, also called CH235.9; DH493) VH: QVRLLQYGGGVKRPGASMTISCVASGYNFNDYYIHWVRQAPGQGLELMGWIDPSGGRTDYAGAFGDRVSMYRDKSMNTLYMDLRSLRSGDTAMYYCVRNVGTAGSLLHYDHWGLGVMVTVSS VL: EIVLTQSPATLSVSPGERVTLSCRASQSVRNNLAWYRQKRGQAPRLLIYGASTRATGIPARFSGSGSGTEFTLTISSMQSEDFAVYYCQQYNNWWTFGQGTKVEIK ?
[out] 8.11
